Recorded values, source patent US20170210813A1.

- tested on: T1, human PDGFRb.hFc (human)
- T1 construct: Soluble dimeric construct with human Fc; also called hPDGFRb.hFc
- experiment description: SPR, mAb captured, 37 C
parameter: Kd (nM)
Record the value in nM, omitting the unit from your answer.

Quick one: give measured Kd for H4H3105S (antibody, human IgG4, V domains shown, human IgG4 Fc (H4H prefix)) VH: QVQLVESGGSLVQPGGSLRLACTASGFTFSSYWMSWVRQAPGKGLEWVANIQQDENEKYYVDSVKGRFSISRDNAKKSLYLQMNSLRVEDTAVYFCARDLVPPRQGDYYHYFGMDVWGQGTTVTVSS VL: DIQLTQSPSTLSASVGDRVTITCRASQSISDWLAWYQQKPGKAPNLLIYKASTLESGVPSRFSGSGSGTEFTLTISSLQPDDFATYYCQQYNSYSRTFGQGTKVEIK
3

Quick one: give measured Kd for H4H3103S (antibody, human IgG4, V domains shown, human IgG4 Fc (H4H prefix)) VH: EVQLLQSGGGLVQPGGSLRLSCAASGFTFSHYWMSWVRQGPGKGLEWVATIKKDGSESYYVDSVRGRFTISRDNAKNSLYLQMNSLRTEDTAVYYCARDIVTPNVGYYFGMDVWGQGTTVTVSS VL: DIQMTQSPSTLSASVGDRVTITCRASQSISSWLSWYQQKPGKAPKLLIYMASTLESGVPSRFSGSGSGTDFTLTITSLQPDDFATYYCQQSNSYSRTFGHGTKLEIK
0.405
